target: T1, cynomolgus monkey serum albumin (cynomolgus monkey, UniProt A2V9Z4 25-608); experiment: SPR Biacore 8K+ SCK, albumin on chip, pH 5.5
T1 construct: Immobilised on SPR chips; also called cynoSA; cynomolgus albumin
Below, each entry is listed with its recorded pKd.
When answering, recall that pKd equals minus log10 of the concentration in mol/L, and write that number alone.

Below, 4 binders whose answers are already recorded.
Alb23 G100A (VHH, VHH alone) VHH: EVQLLESGGGLVQPGGSLRLSCAASGFTFRSFGMSWVRQAPGKGPEWVSSISGSGSDTLYADSVKGRFTISRDNSKNTLYLQMNSLRPEDTAVYYCTIGASLSRSSQGTLVTVSS; 7.67
Alb23 L59A (VHH, VHH alone) VHH: EVQLLESGGGLVQPGGSLRLSCAASGFTFRSFGMSWVRQAPGKGPEWVSSISGSGSDTAYADSVKGRFTISRDNSKNTLYLQMNSLRPEDTAVYYCTIGGSLSRSSQGTLVTVSS; 7.59
Alb23 G99A (VHH, VHH alone) VHH: EVQLLESGGGLVQPGGSLRLSCAASGFTFRSFGMSWVRQAPGKGPEWVSSISGSGSDTLYADSVKGRFTISRDNSKNTLYLQMNSLRPEDTAVYYCTIAGSLSRSSQGTLVTVSS; 7.33
Alb23 G33A/S101A (VHH, VHH alone) VHH: EVQLLESGGGLVQPGGSLRLSCAASGFTFRSFAMSWVRQAPGKGPEWVSSISGSGSDTLYADSVKGRFTISRDNSKNTLYLQMNSLRPEDTAVYYCTIGGALSRSSQGTLVTVSS; 7.21

The binder listed as Alb23 M34A (VHH, VHH alone) VHH: EVQLLESGGGLVQPGGSLRLSCAASGFTFRSFGASWVRQAPGKGPEWVSSISGSGSDTLYADSVKGRFTISRDNSKNTLYLQMNSLRPEDTAVYYCTIGGSLSRSSQGTLVTVSS shows pKd equal to 7.12

The binder listed as Alb23 (VHH, VHH alone, injected in solution; also called VHH-Alb23_Parental (#1); Alb23 parental) VHH: EVQLLESGGGLVQPGGSLRLSCAASGFTFRSFGMSWVRQAPGKGPEWVSSISGSGSDTLYADSVKGRFTISRDNSKNTLYLQMNSLRPEDTAVYYCTIGGSLSRSSQGTLVTVSS shows pKd equal to 8.88
